Reference source for all entries: the supplement of paper PMC10899765

tested on: MCF10A; assay: percent viability (nuclei count relative to siNT); higher = more viable cells; conditions: 20 nM; 72 h
Reported percent viability values follow for various sequences
Just the number in %, nothing appended.

Solved entries (count: 2):
monomer-sequence	measured-target	percent viability / %
UGGCCCUGACUGAAGACCAGCAGU [hsa-miR-1291]	MCF10A	51
GUGUGGAAGAUGGGAGGAGAAA [hsa-miR-6833-5p]	MCF10A	49.8

Consider the record given below.
Field percent viability (entry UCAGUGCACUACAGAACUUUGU [hsa-miR-148a-3p] ) reads 88.9

====

The entries below are paired with their reported one-nucleolus phenotype percent effect.
test system: MCF10A; experiment: one-nucleolus phenotype percent effect (relative to siNT 0% and siNOL11 100%); higher = more cells with one nucleolus (ribosome biogenesis inhibition); conditions: 20 nM; 72 h
The reply should consist of the numeric value with the unit placed after it.

monomer-sequence	one-nucleolus phenotype percent effect
CAAAAGUGAUUGUGGUUUUUGC [hsa-miR-548az-5p]	-15.6%
UGGGUUUACGUUGGGAGAACU [hsa-miR-629-5p]	17.7%
CAAGCCUCUCCUGCCCUUCCAG [hsa-miR-7109-3p]	-12.1%
CCCGGCCGGAACGCCGCACU [hsa-miR-6850-3p]	-20.3%
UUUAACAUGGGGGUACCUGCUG [hsa-miR-302c-5p]	-8.1%
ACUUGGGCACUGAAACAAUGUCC [hsa-miR-635]	-11.4%
UGACUCUGCCUGUAGGCCGGU [hsa-miR-4522]	23.6%
CCUAGAAACUGUAAACUUAGUC [hsa-miR-8067]	-35.3%
CACUGCAUUCCUGCUUGGCCCAG [hsa-miR-6807-3p]	-9.99%
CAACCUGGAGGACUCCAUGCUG [hsa-miR-490-3p]	-12.6%

Query UGAGUAUUACAUGGCCAAUCUC [hsa-miR-496] yields one-nucleolus phenotype percent effect of 11.1%

====

test system: MCF10A; experiment: one-nucleolus phenotype percent effect (relative to siNT 0% and siNOL11 100%); higher = more cells with one nucleolus (ribosome biogenesis inhibition); settings: 20 nM; 72 h
one-nucleolus phenotype percent effect values, listed per item
Enter your answer as a number in %; do not include the unit.

Reference set, count: 9
monomer-sequence	measured-target	parameter-measured	experimental-result
UGAGACAGGCUUAUGCUGCUAU [hsa-miR-4524a-3p]	MCF10A	one-nucleolus phenotype percent effect	24.8
CACUGUGGGUACAUGCU [hsa-miR-4318]	MCF10A	one-nucleolus phenotype percent effect	65.2
GGGGGAAGAAAAGGUGGGG [hsa-miR-4271]	MCF10A	one-nucleolus phenotype percent effect	-5.03
CUAUAUAUCAAACAUAUUCCU [hsa-miR-190a-3p]	MCF10A	one-nucleolus phenotype percent effect	-19.5
UCACACCUGCCUCGCCCCCC [hsa-miR-1228-3p]	MCF10A	one-nucleolus phenotype percent effect	5.12
GGCGACAAAACGAGACCCUGUC [hsa-miR-1273c]	MCF10A	one-nucleolus phenotype percent effect	106
CGCGCCGGGCCCGGGUU [hsa-miR-3195]	MCF10A	one-nucleolus phenotype percent effect	82.1
UUAUUGUCACGUUCUGAUU [hsa-miR-5701]	MCF10A	one-nucleolus phenotype percent effect	4.81
UCUUCAACCUCAGGACUUGCA [hsa-miR-676-5p]	MCF10A	one-nucleolus phenotype percent effect	-20.5

Now let's try a different one.
The sequence listed as UGGGCGAGGGCGGCUGAGCGGC [hsa-miR-6729-5p] shows one-nucleolus phenotype percent effect equal to 6.3
